These entries and their values trace back to patent US20250270319A1.

List of Receptor downregulation, (EC50) (pM) values.
- ASSAY TARGET: human CD33 on primary human dendritic cells (human, UniProt P20138 18-364)
- Sequence (P20138 18-364): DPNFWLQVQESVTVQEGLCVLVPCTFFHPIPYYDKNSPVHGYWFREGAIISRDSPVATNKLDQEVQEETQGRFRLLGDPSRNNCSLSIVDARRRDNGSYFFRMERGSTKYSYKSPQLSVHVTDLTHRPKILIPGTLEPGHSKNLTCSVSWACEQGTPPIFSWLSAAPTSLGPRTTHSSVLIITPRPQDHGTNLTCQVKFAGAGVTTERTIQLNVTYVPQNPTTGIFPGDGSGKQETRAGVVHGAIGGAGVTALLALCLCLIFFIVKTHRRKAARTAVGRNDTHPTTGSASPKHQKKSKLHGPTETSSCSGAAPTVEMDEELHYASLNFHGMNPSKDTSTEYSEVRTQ
- MEASUREMENT PROTOCOL: cell-based or functional assay

{"BINDER": "anti-CD33 antibody 6C7H26 (antibody, V domains shown, VH/VL only) VH: EVQLVESGGGLVQPGGSLRLSCAGSGFTFSNYIMNWVRQAPGKGLEWVAEIRLKSNNYVTNYAASVKGRFTISRDDSKNSVYLQMNSLKTEDTGVYYCTRAGYYVPFAYWGQGTLVTVSS VL: QLVLTQSPSASASLGASVKLTCTLSSQHSTYTIEWYQQQPEKGPRYLMELKKEGSHSTGDGIPDRFSGSSSGAERYLTISSLQSEDEADYYCGVGDTIKEQFVYVFGGGTKLTVL", "UNIT DESCRIPTOR": "pM", "Receptor downregulation, (EC50) (pM)": 175}
{"BINDER": "anti-CD33 antibody 6C7H24 (antibody, V domains shown, VH/VL only) VH: EVQLVESGGGLVQPGGSLRLSCAGSGFTFSNYNMNWVRQAPGKGLEWVAEIRLKSNNYVTNYAASVKGRFTISRDDSKNSVYLQMNSLKTEDTGVYYCTRAGYYVPFAYWGQGTLVTVSS VL: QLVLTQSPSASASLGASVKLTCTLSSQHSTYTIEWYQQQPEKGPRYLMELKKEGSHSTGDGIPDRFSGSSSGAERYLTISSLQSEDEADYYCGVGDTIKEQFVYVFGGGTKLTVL", "UNIT DESCRIPTOR": "pM", "Receptor downregulation, (EC50) (pM)": 319}
{"BINDER": "anti-CD33 antibody 6C7H23 (antibody, V domains shown, VH/VL only) VH: EVQLVESGGGLVQPGGSLRLSCAGSGFTFSNYVMNWVRQAPGKGLEWVAEIRLKSNNYVTNYAASVKGRFTISRDDSKNSVYLQMNSLKTEDTGVYYCTRAGYYVPFAYWGQGTLVTVSS VL: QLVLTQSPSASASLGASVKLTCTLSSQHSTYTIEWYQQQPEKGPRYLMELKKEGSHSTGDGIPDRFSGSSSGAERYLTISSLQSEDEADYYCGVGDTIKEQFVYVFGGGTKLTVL", "UNIT DESCRIPTOR": "pM", "Receptor downregulation, (EC50) (pM)": 120}
{"BINDER": "anti-CD33 antibody 6C7H8 (antibody, IgG1, V domains shown, VH/VL only; also called 6C7H8 IgG1; parental antibody) VH: EVQLVESGGGLVQPGGSLRLSCAGSGFTFSNYCMNWVRQAPGKGLEWVAEIRLKSNNYVTNYAASVKGRFTISRDDSKNSVYLQMNSLKTEDTGVYYCTRAGYYVPFAYWGQGTLVTVSS VL: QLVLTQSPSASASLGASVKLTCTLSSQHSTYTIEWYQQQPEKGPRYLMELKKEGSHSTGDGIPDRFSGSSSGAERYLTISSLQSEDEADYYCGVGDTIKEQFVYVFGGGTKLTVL", "UNIT DESCRIPTOR": "pM", "Receptor downregulation, (EC50) (pM)": 77.9}
